System: HepG2 cells
Assay: Hepatocellular viability assay (resazurin reduction)
Assay type: cell-based, Human
Settings: Homo sapiens, HepG2, 24 h, HepG2 cells, 24 h, resazurin assay, 0.01-100 μM; read-out: IC50, HepG2 cell viability
Parameter: IC50

IN: # returns recorded IC50 (system: HepG2 cells) for CCOC(=O)/C=C/c1ccc(OC)cc1 [EPMC, ethyl-p-methoxycinnamate]
OUT: > 100 µM

###

I'd be grateful if you could share measured IC50 for these entries.
Biological target: hERG (Homo sapiens, UniProt Q12809)
Construct: host or cells: HEK293 cells stably overexpressing hERG
Sequence (Q12809 whole entry): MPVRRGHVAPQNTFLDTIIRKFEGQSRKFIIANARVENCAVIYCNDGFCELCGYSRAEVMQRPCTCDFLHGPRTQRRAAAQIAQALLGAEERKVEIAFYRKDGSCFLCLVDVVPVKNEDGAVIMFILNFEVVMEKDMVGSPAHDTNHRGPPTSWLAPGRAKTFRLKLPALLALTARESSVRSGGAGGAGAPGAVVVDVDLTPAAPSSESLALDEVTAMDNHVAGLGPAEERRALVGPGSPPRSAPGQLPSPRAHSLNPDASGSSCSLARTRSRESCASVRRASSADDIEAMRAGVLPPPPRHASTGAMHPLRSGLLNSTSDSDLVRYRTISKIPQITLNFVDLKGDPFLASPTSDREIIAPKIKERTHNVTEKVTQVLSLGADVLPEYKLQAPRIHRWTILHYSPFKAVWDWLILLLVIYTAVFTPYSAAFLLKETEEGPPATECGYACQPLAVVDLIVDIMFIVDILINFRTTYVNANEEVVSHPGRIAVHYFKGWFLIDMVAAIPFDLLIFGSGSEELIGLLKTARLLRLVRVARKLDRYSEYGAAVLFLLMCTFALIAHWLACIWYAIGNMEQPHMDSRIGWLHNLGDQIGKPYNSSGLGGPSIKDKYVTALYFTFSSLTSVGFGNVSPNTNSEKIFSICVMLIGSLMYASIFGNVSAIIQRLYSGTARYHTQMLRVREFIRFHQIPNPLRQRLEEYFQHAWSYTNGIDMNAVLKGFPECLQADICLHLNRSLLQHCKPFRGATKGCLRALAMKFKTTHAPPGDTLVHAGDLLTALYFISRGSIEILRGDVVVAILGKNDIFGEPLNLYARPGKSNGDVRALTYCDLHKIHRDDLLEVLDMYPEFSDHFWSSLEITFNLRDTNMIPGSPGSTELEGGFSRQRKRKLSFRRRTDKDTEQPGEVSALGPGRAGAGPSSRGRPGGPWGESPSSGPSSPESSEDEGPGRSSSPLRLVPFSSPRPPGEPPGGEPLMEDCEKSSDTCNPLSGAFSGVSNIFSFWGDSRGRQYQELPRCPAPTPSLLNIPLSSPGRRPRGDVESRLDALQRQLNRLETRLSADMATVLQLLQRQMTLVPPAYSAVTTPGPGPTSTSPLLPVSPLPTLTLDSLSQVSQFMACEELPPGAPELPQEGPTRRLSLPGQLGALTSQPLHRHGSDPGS
Experiment: hERG inhibition assay by automated patch-clamp electrophysiology in hERG-overexpressing HEK293 cells
Assay type: cell-based
Conditions: hERG-overexpressing HEK293 cells, peak tail current, automated patch clamp; read-out: IC50, hERG channel activity
Give the value in µM but do not write µM after it.

IN: Need IC50, item CCOC(=O)/C=C/c1ccc(OC)cc1 [EPMC, ethyl-p-methoxycinnamate]
OUT: 53

IN: Need IC50, item "C=C1CCC[C@]2(C)CC[C@@H](C(C)(C)O)C[C@@H]12"
OUT: 33.4

IN: Need IC50, item CCC/C=C1\OC(=O)C2=C1CCC=C2 [LIG, ligustilide]
OUT: 37.3
